Assay read-out MIC; system under study: S. epidermidis ATCC14990.
Reply with just the number (in µg/mL).

Example entries begin here.
1) CO[C@@H]1[C@@H](O[C@@H]2O[C@H](C)[C@@H](O[C@H]3C[C@@](C)(OC)[C@@H](OCCC(C)C)[C@H](C)O3)[C@H](N(C)C)[C@H]2O)[C@@H](CC=O)C[C@@H](C)[C@@H](O)/C=C/C=C/C[C@@H](C)OC(=O)C[C@H]1O :: 0.39
2) CCCCCCO[C@H]1[C@H](C)O[C@@H](O[C@H]2[C@H](N(C)C)[C@@H](O)[C@H](O[C@H]3[C@@H](CC=O)C[C@@H](C)[C@@H](O)/C=C/C=C/C[C@@H](C)OC(=O)C[C@@H](OC(=O)CC)[C@@H]3OC)O[C@@H]2C)C[C@@]1(C)OC :: 1.56
3) CCO[C@]1(C)C[C@H](O[C@H]2[C@H](N(C)C)[C@@H](O)[C@H](O[C@H]3[C@@H](CC=O)C[C@@H](C)[C@@H](O)/C=C/C=C/C[C@@H](C)OC(=O)C[C@@H](O)[C@@H]3OC)O[C@@H]2C)O[C@@H](C)[C@@H]1OCCC(C)C :: 0.78
4) CCCCO[C@H]1[C@H](C)O[C@@H](O[C@H]2[C@H](N(C)C)[C@@H](O)[C@H](O[C@H]3[C@@H](CC=O)C[C@@H](C)[C@@H](O)/C=C/C=C/C[C@@H](C)OC(=O)C[C@@H](O)[C@@H]3OC)O[C@@H]2C)C[C@@]1(C)OC :: 0.39
5) CO[C@@H]1[C@@H](O[C@@H]2O[C@H](C)[C@@H](O[C@H]3C[C@@](C)(OC)[C@@H](OCc4ccccc4)[C@H](C)O3)[C@H](N(C)C)[C@H]2O)[C@@H](CC=O)C[C@@H](C)[C@@H](O)/C=C/C=C/C[C@@H](C)OC(=O)C[C@H]1O :: 0.2

So what MIC did CCC(=O)O[C@H]1[C@H](C)O[C@@H](O[C@H]2[C@H](N(C)C)[C@@H](O)[C@H](O[C@H]3[C@@H](CC=O)C[C@@H](C)[C@@H](O)/C=C/C=C/C[C@@H](C)OC(=O)C[C@@H](O)[C@@H]3OC)O[C@@H]2C)C[C@@]1(C)O [LM-A7, leucomycin A7, reference compound] get with S. epidermidis ATCC14990?
0.39

So what MIC did `CCCO[C@H]1[C@H](C)O[C@@H](O[C@H]2[C@H](N(C)C)[C@@H](O)[C@H](O[C@H]3[C@@H](CC=O)C[C@@H](C)[C@@H](O)/C=C/C=C/C[C@@H](C)OC(=O)C[C@@H](O)[C@@H]3OC)O[C@@H]2C)C[C@@]1(C)OC` get with S. epidermidis ATCC14990?
0.39

So what MIC did `CCCO[C@]1(C)C[C@H](O[C@H]2[C@H](N(C)C)[C@@H](O)[C@H](O[C@H]3[C@@H](CC=O)C[C@@H](C)[C@@H](O)/C=C/C=C/C[C@@H](C)OC(=O)C[C@@H](O)[C@@H]3OC)O[C@@H]2C)O[C@@H](C)[C@@H]1OCCC(C)C` get with S. epidermidis ATCC14990?
0.78

The reported numbers originate from patent US5407918A.
